Numbers sourced from patent US20240158348A1.

Tested on: ragweed (common ragweed, Ambrosia artemisiifolia)
ASSAY_NAME: Test C postemergence, ragweed
Type: in vivo
PROTOCOL_CONDITIONS: 31 g ai/ha Postemergence; visual injury, 0 to 100 scale (0 no effect, 100 complete control)

{"COMPOUND": "Cc1cc(C)c(N(C(=O)OC(C)C)S(=O)(=O)C(F)(F)F)cc1N1CCC(OC2CC2)C1=O (centres unmarked)", "Ragweed plant response rating": 0}
{"COMPOUND": "Cc1c(N2CCC(OC3CCC3)C2=O)cc(N(COC(=O)C(C)(C)C)S(=O)(=O)C(F)(F)F)c(C)c1C (centres unmarked)", "Ragweed plant response rating": 60}
{"COMPOUND": "Cc1c(NS(=O)(=O)C(F)(F)F)cc(N2CCC(OC3CC3)C2=O)c(C)c1C (centres unmarked)", "Ragweed plant response rating": 60}
{"COMPOUND": "Cc1cc(C)c(N(COC(=O)C(C)(C)C)S(=O)(=O)C(F)(F)F)cc1N1CCC(OCC2CC2)C1=O (centres unmarked)", "Ragweed plant response rating": 70}
{"COMPOUND": "CCO/N=C1\\CCN(c2cc(NS(=O)(=O)C(F)(F)F)c(C)cc2C)C1=O", "Ragweed plant response rating": 90}
{"COMPOUND": "Cc1cc(C)c(N2CCC(OCC3CCC3)C2=O)cc1NS(=O)(=O)C(F)(F)F (centres unmarked)", "Ragweed plant response rating": 50}
{"COMPOUND": "Cc1c(NS(=O)(=O)C(F)(F)F)cc(N2CCC(OC3CC3)C2=O)c(C)c1F (centres unmarked)", "Ragweed plant response rating": 60}
{"COMPOUND": "Cc1cc(C)c(N(COC(=O)C(C)(C)C)S(=O)(=O)C(F)(F)F)cc1N1CCC(OCC2CCC2)C1=O (centres unmarked)", "Ragweed plant response rating": 20}
